# credit: PubChem BioAssay AID540322

Data export: IC50 values recorded with Potassium channel subfamily K member 9 (Homo sapiens) (UniProt Q9NPC2).
Sequence (Q9NPC2 whole entry, looked up): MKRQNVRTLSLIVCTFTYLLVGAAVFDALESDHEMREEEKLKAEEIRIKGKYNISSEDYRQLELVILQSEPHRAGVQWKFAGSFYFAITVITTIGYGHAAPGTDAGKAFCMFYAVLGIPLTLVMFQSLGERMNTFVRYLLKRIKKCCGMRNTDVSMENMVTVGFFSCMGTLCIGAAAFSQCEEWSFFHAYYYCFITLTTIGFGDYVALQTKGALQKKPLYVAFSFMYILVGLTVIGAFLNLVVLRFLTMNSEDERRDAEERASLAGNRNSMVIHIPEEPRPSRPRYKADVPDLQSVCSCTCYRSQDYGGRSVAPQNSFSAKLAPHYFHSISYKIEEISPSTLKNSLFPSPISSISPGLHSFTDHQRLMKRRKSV

Prompt line: Please state recorded IC50 (tested on Potassium channel subfamily K member 9 (Homo sapiens) (UniProt Q9NPC2)) of `CCOc1ccccc1NC(=O)c1cccc(NC(=O)CC2CCCC2)c1`
Response line: 4170 nM

Prompt line: Please state recorded IC50 (tested on Potassium channel subfamily K member 9 (Homo sapiens) (UniProt Q9NPC2)) of `COc1cccc(C(=O)Nc2cccc(NC(=O)c3cccc(C)c3)c2)c1`
Response line: 29300 nM

Prompt line: Please state recorded IC50 (tested on Potassium channel subfamily K member 9 (Homo sapiens) (UniProt Q9NPC2)) of `COc1ccccc1C(=O)Nc1cccc(NC(=O)c2ccccc2OC(F)(F)F)c1`
Response line: 1170 nM

Prompt line: Please state recorded IC50 (tested on Potassium channel subfamily K member 9 (Homo sapiens) (UniProt Q9NPC2)) of `Cc1cccc(C(=O)Nc2cccc(NC(=O)c3ccccc3OCC(C)C)c2)c1`
Response line: 3390 nM

Prompt line: Please state recorded IC50 (tested on Potassium channel subfamily K member 9 (Homo sapiens) (UniProt Q9NPC2)) of CC(C1CC2CCC1C2)n1c(-c2ccccc2)n[nH]c1=S (stereo not given)
Response line: 520 nM

Prompt line: Please state recorded IC50 (tested on Potassium channel subfamily K member 9 (Homo sapiens) (UniProt Q9NPC2)) of `CCOc1ccccc1NC(=O)c1cccc(NC(=O)c2ccccc2OC(F)(F)F)c1`
Response line: 800 nM

Prompt line: Please state recorded IC50 (tested on Potassium channel subfamily K member 9 (Homo sapiens) (UniProt Q9NPC2)) of `CCOc1ccccc1C(=O)Nc1cccc(NC(=O)c2cccc(C)c2)c1`
Response line: 570 nM

Prompt line: Please state recorded IC50 (tested on Potassium channel subfamily K member 9 (Homo sapiens) (UniProt Q9NPC2)) of `CCOc1ccccc1C(=O)Nc1cccc(NC(=O)C2CCCC2)c1`
Response line: 1110 nM

Prompt line: Please state recorded IC50 (tested on Potassium channel subfamily K member 9 (Homo sapiens) (UniProt Q9NPC2)) of `CCOc1ccccc1NC(=O)c1cccc(NC(=O)c2cccc(C(F)(F)F)c2)c1`
Response line: 1380 nM

Prompt line: Please state recorded IC50 (tested on Potassium channel subfamily K member 9 (Homo sapiens) (UniProt Q9NPC2)) of `Cc1cccc(C(=O)Nc2cccc(NC(=O)c3cccc(C)c3)c2)c1`
Response line: 990 nM

Prompt line: Please state recorded IC50 (tested on Potassium channel subfamily K member 9 (Homo sapiens) (UniProt Q9NPC2)) of `Cc1ccccc1C(=O)Nc1cccc(NC(=O)c2ccccc2)c1`
Response line: 6480 nM

Prompt line: Please state recorded IC50 (tested on Potassium channel subfamily K member 9 (Homo sapiens) (UniProt Q9NPC2)) of `CCOc1cccc(NC(=O)c2cccc(NC(=O)C3CCCC3)c2)c1`
Response line: 4070 nM

Prompt line: Please state recorded IC50 (tested on Potassium channel subfamily K member 9 (Homo sapiens) (UniProt Q9NPC2)) of `Cc1cccc(C(=O)Nc2cccc(NC(=O)c3cccc(Cl)c3)c2)c1`
Response line: 13400 nM

Prompt line: Please state recorded IC50 (tested on Potassium channel subfamily K member 9 (Homo sapiens) (UniProt Q9NPC2)) of CC(C1CC2CCC1C2)n1c(-c2cccc(Cl)c2)n[nH]c1=S (stereo not given)
Response line: 440 nM

Prompt line: Please state recorded IC50 (tested on Potassium channel subfamily K member 9 (Homo sapiens) (UniProt Q9NPC2)) of `COc1ccccc1C(=O)Nc1cccc(NC(=O)c2cccc(C)c2)c1`
Response line: 2720 nM

Prompt line: Please state recorded IC50 (tested on Potassium channel subfamily K member 9 (Homo sapiens) (UniProt Q9NPC2)) of `COc1ccccc1NC(=O)c1cccc(NC(=O)C2CCCC2)c1`
Response line: 1550 nM

Prompt line: Please state recorded IC50 (tested on Potassium channel subfamily K member 9 (Homo sapiens) (UniProt Q9NPC2)) of `CCOc1ccccc1NC(=O)c1cccc(NC(=O)c2ccccc2C(F)(F)F)c1`
Response line: 320 nM

Prompt line: Please state recorded IC50 (tested on Potassium channel subfamily K member 9 (Homo sapiens) (UniProt Q9NPC2)) of `CCOc1ccccc1NC(=O)c1cccc(NC(=O)c2ccccc2Cl)c1`
Response line: 2630 nM

Prompt line: Please state recorded IC50 (tested on Potassium channel subfamily K member 9 (Homo sapiens) (UniProt Q9NPC2)) of `Cc1cccc(C(=O)Nc2cccc(NC(=O)C3CCCCC3)c2)c1`
Response line: 11900 nM

Prompt line: Please state recorded IC50 (tested on Potassium channel subfamily K member 9 (Homo sapiens) (UniProt Q9NPC2)) of `COc1ccccc1NC(=O)c1cccc(NC(=O)c2ccccc2OC)c1`
Response line: 3020 nM

Prompt line: Please state recorded IC50 (tested on Potassium channel subfamily K member 9 (Homo sapiens) (UniProt Q9NPC2)) of `O=C(Nc1cccc(NC(=O)c2ccccc2C(F)(F)F)c1)c1ccccc1`
Response line: 7210 nM

Prompt line: Please state recorded IC50 (tested on Potassium channel subfamily K member 9 (Homo sapiens) (UniProt Q9NPC2)) of `CCOc1ccccc1NC(=O)c1cccc(NC(=O)C2CCCCC2)c1`
Response line: 1300 nM

Prompt line: Please state recorded IC50 (tested on Potassium channel subfamily K member 9 (Homo sapiens) (UniProt Q9NPC2)) of COc1ccc(-c2n[nH]c(=S)n2C(C)C2CC3CCC2C3)cc1 (stereo not given)
Response line: 1730 nM

Prompt line: Please state recorded IC50 (tested on Potassium channel subfamily K member 9 (Homo sapiens) (UniProt Q9NPC2)) of `O=C(Nc1ccccc1Cl)c1cccc(NC(=O)C2CCCC2)c1`
Response line: 5780 nM

Prompt line: Please state recorded IC50 (tested on Potassium channel subfamily K member 9 (Homo sapiens) (UniProt Q9NPC2)) of `CCOc1ccccc1NC(=O)c1cccc(NC(=O)c2cccc(OC)c2)c1`
Response line: 2330 nM
